Target: T1, MPDZ_12, O75970
T1 sequence (O75970 1857-1958, limits assumed, looked up): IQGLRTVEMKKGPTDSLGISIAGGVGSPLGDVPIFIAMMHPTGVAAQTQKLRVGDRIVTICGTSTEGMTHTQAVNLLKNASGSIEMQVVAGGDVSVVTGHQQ
Test: holdup assay
Design: key: below the threshold = too weak to quantify, mostly under pKd 3.1 to 4
Details: plain residues with an end cap or a label only (N-terminal biotin on a linker: ado-ado)
reported-endpoint: pKd

# count of solved cases: 5
binder: PEYLGLDVPV [ERBB2, P04626]
pKd: below the threshold
--
binder: VDSTVKVWTC [TRAF7, Q6Q0C0]
pKd: 3.52
--
binder: CLREWCDAFL [BANF1, O75531]
pKd: 3.67
--
binder: NLSIEKETKL [ASNSD1, Q9NWL6]
pKd: 3.56
--
binder: DDEDRLVIEI [ZNF831, Q5JPB2]
pKd: below the threshold

[Q] Field request: pKd | item: SAKVRTVTSV [RASL11B, Q9BPW5]
[A] below the threshold

[Q] How about EKKTLIGIKL [GOT1L1, Q8NHS2] ?
[A] below the threshold

[Q] How about LSEFKAMDSI [CTNNA1, P35221] ?
[A] below the threshold
